Experimental System: Amine oxidase [flavin-containing] A (Homo sapiens)
Sequence (P21397 whole entry): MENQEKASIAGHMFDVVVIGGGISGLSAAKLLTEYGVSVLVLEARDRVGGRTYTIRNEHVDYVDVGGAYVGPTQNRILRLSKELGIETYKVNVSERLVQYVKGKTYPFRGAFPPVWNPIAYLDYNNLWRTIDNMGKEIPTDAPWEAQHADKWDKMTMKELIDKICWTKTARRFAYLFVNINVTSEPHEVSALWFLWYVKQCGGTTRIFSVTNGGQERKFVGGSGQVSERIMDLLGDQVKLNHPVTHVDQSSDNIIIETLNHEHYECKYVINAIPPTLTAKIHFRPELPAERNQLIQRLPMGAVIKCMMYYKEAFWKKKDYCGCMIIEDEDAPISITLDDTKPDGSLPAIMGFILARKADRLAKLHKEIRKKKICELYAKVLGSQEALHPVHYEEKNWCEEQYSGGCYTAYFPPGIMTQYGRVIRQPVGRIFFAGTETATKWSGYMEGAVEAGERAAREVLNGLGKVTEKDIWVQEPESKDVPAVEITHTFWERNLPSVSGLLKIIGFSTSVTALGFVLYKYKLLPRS
Experiment Description: Competitive inhibition of human brain mitochondria MAO-A using kynuramine as substrate by Lineweaver-Burk analysis
pKi: −log10 of the molar value.

[
  {
    "Sample Smiles": "O=C1C=CC(=O)C=C1",
    "pKi": 5.02
  }
]

====

In this section, each of the molecules is paired with its reported pIC50.
Experimental System: Amine oxidase [flavin-containing] A (Homo sapiens)
Sequence (P21397 whole entry): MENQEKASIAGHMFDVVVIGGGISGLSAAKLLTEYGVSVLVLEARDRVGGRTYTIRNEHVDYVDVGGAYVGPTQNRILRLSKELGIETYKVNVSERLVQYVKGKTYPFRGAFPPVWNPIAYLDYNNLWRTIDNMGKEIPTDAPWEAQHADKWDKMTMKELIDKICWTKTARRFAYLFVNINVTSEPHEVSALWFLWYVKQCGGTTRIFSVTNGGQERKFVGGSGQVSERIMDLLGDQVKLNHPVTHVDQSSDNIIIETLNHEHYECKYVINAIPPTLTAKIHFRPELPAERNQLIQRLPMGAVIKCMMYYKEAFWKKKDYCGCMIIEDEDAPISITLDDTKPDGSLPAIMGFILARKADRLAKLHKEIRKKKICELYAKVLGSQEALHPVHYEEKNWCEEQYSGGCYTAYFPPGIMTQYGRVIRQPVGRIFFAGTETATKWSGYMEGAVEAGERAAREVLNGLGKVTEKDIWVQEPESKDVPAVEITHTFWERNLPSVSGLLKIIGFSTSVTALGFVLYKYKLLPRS
Experiment Description: Inhibition of recombinant human MAO-A expressed in baculovirus infected BTI insect cell microsomes using kynuramine as substrate after 20 mins by fluorescence spectroscopy
pIC50: −log10 of the molar value.

[
  {
    "Sample Smiles": "O=C1C=CC(=O)C=C1",
    "pIC50": 5.32
  },
  {
    "Sample Smiles": "O=C1C=CC(=O)C(C2CCCC2)=C1",
    "pIC50": 5.23
  },
  {
    "Sample Smiles": "O=C1C=CC(=O)C(Cc2ccccc2)=C1",
    "pIC50": 5.27
  },
  {
    "Sample Smiles": "O=C1C=CC(=O)C(c2ccccc2)=C1",
    "pIC50": 5.30
  },
  {
    "Sample Smiles": "O=C1C=CC(=O)C(OCc2ccccc2)=C1",
    "pIC50": 4.88
  }
]
